# Tested on: T. gondii RH strain (RH-Tub-eYFP) tachyzoites
# protocol_notes: microbe, parasite or virus in culture
# Format: cell-based, Toxoplasma gondii
# experimental_context: Toxoplasma gondii; T. gondii, 72 h, screen at 2 μg/mL, replicate 1; read-out: Tg_72h_%Growth_Rep1
// boundary case: percent parasite growth at 2 µg/mL equal to 90% maps to rule not met; strictly smaller maps to rule met

**Q:** In the record for COC[C@H]1OC(=O)c2coc3c2[C@@]1(C)C1=C(C3=O)[C@@H]2CCC(=O)[C@@]2(C)C[C@H]1OC(C)=O , is percent parasite growth at 2 µg/mL less than 90%?
**A:** rule not met

**Q:** In the record for C[C@@H]1C[C@@H]([C@H](O)CC2CC(=O)NC(=O)C2)C(=O)[C@@H](C)C1 [cycloheximide, reference compound] , is percent parasite growth at 2 µg/mL less than 90%?
**A:** rule met
